system: CCRF-CEM leukemia; experiment: NCI tumour cell line growth inhibition, 48 h
result-type: TGI

compound=NNC(=O)c1cccc2c1Oc1ccccc1S2 result="> 100 µM"
compound=O=P(O)(O)C(O)(Cn1ccnc1)P(=O)(O)O result="> 100 µM"
compound=FC(F)=C(c1ccc(-c2ccc(Cl)cc2)cc1)C(F)(F)F result="62.1 µM"
compound="CC(=O)n1c(-c2ccc(Cl)cc2)nc2c(c1=O)C(c1ccc(Cl)cc1)c1sc3c(Cl)cccc3c1O2 (configuration not stated)" result="4.12 µM"
compound=Nc1nc(Nc2ccc(OCc3cccc(F)c3)cc2)c2c(n1)[nH]c1ccc(O)cc12 result="9.62 µM"
compound=CCCSc1cc(Cl)nc(N)n1 result="> 100 µM"

// recorded TGI for COc1cc(/C=C/C(=N\NC(=O)c2ccccc2)c2sc(Nc3ccc(Cl)c(Cl)c3)nc2C)ccc1O : > 100 µM

// recorded TGI for O=c1c2cc3c(=O)n(CCc4ccccc4CO)c(=O)c3cc2c(=O)n1CCc1ccccc1CO : > 100 µM

// recorded TGI for Nc1ccc(SC23CC4CC(CC(C4)C2)C3)cc1 : > 100 µM

// recorded TGI for Cc1cc2c(cc1Cl)SC(NNc1cnc3ccccc3n1)=NS2(=O)=O : > 100 µM

// recorded TGI for CCOC(=O)C1=C(C)NC(=O)N([N+](=O)[O-])C1c1ccccc1C(F)(F)F (configuration not stated) : > 100 µM

// recorded TGI for COc1cc(/C=C/C(=O)O)ccc1OS(=O)(=O)O : > 100 µM
